test system: Staphylococcus aureus VISA Met-R (code 3797); details: S. aureus VISA Met-R code 3797; 0.02% albumine bovine serum; read after 24 h
Reported property: Minimal Inhibitory Concentrations (µg/mL)

>  <Substance smiles>
C=C1NC(=O)[C@H](C(C)C)NC(=O)[C@H](NC(=O)/C(=C/C)NC(=O)[C@@H](N)[C@@H](C)CC)CSC[C@@H](C(=O)N[C@H]2C(=O)N3CCC[C@H]3C(=O)NCC(=O)N[C@H](C(=O)N[C@H](C(=O)N[C@@H]3CSC[C@@H]4NC(=O)CNC(=O)[C@@H](CSC[C@@H]5NC(=O)[C@H](Cc6c[nH]cn6)NC(=O)[C@@H](CSC[C@@H](C(=O)NCCN)NC5=O)NC4=O)NC(=O)CNC(=O)CNC(=O)CNC(=O)[C@H](CCC(=O)NCCN)NC3=O)[C@@H](C)O)CS[C@H]2C)NC(=O)[C@H](Cc2c[nH]c3ccccc23)NC1=O

>  <Number>
1

$$$$
>  <Substance smiles>
C=CCNC(=O)CC[C@@H]1NC(=O)[C@H](NC(=O)[C@@H](NC(=O)[C@@H]2CS[C@@H](C)[C@@H](NC(=O)[C@@H]3CSC[C@@H](NC(=O)/C(=C/C)NC(=O)[C@@H](N)[C@@H](C)CC)C(=O)N[C@@H](C(C)C)C(=O)NC(=C)C(=O)N[C@@H](Cc4c[nH]c5ccccc45)C(=O)N3)C(=O)N3CCC[C@H]3C(=O)NCC(=O)N2)[C@@H](C)O)CSC[C@@H]2NC(=O)CNC(=O)[C@@H](CSC[C@@H]3NC(=O)[C@H](Cc4c[nH]cn4)NC(=O)[C@@H](CSC[C@@H](C(=O)NCC=C)NC3=O)NC2=O)NC(=O)CNC(=O)CNC(=O)CNC1=O

>  <Number>
8

$$$$
